Values were extracted from patent US20260262643A1.

system: goosegrass; assay: Test A preemergence; format: in vivo, Eleusine indica; conditions: Eleusine indica, pre-emergence, 240 h, 125 g ai/ha, visual injury after 10 days, 0 to 100 scale, 0 is no effect, 100 is complete control, read-out: Plant response rating, Goosegrass

COMPOUND: COCc1ncn(-c2cccc(C(=O)N3C[C@H](C)Oc4c(C)cccc43)c2)n1
pest or weed control at 125 g/ha / %: 90
//
COMPOUND: Cc1cccc2c1O[C@@H](C)CN2C(=O)c1cccc(-n2cnc(C3CCCC3)n2)c1
pest or weed control at 125 g/ha / %: 90
//
COMPOUND: Cc1ncn(-c2ccc(C)c(C(=O)N3C[C@H](C)Oc4c(Cl)cccc43)c2)n1 (single isomer, unassigned)
pest or weed control at 125 g/ha / %: 100
//
COMPOUND: Cc1ccc(-n2cnc(C(C)C)n2)cc1C(=O)N1C[C@H](C)Oc2c(Cl)cccc21
pest or weed control at 125 g/ha / %: 100
